Below: a set of entries, each annotated with reported IC50.
# assay_target: Ubiquitin carboxyl-terminal hydrolase 25 (Homo sapiens, UniProt Q9UHP3)
# Sequence (Q9UHP3 whole entry): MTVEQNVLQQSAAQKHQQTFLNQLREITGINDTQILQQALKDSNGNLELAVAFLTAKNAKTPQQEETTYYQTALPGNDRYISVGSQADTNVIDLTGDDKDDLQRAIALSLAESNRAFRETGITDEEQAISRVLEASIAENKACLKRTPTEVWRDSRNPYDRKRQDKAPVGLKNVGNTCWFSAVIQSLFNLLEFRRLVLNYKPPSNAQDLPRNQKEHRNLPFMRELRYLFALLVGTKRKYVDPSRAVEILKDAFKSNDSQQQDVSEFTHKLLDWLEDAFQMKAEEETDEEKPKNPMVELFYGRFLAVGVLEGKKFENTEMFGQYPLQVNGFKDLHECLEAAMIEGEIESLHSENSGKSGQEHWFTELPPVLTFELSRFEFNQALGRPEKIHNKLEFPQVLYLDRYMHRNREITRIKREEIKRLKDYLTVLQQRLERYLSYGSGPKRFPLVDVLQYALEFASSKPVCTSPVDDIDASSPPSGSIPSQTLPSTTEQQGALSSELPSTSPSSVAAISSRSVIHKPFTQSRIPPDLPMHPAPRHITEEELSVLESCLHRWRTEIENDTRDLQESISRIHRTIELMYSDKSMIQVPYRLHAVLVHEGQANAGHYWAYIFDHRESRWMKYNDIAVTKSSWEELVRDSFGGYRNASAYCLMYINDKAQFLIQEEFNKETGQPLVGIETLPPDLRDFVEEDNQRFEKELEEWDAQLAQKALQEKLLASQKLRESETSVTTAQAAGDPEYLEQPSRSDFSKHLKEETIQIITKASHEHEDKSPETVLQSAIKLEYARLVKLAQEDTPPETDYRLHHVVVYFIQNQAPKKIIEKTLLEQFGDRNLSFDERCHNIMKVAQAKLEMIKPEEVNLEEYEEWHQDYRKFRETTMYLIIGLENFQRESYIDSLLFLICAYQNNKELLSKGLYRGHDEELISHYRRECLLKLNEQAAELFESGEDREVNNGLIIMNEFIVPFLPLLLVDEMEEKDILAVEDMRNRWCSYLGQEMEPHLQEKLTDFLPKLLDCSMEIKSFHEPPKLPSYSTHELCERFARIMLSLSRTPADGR
# experiment_notes: Inhibition of recombinant C-terminal 6-His tagged human USP25 using ubiquitin-rhodamine 110 as substrate preincubated for 30 mins followed by substrate addition and measured after 45 mins by fluorescence based assay

# get_value(readout= IC50, system= Ubiquitin carboxyl-terminal hydrolase 25 (Homo sapiens, UniProt Q9UHP3)) for COCCn1cc(-c2cc(CCNC(=O)c3sc4nc(C)ccc4c3N)ccc2N2CCNCC2)cn1
2 to 10 µM

Recorded IC50 for Cc1ccc2c(N)c(C(=O)NCCc3ccc(N4CCC5(CC4)CNC5)cc3)sc2n1 with Ubiquitin carboxyl-terminal hydrolase 25 (Homo sapiens, UniProt Q9UHP3), please?
0.2 to 2 µM

Recall the recorded IC50 for Cc1ccc2c(N)c(C(=O)NCCc3ccc(N4CCC5(CNCCO5)C4)cc3)sc2n1 (stereo not given) with Ubiquitin carboxyl-terminal hydrolase 25 (Homo sapiens, UniProt Q9UHP3) and state it.
2 to 10 µM

Report IC50 for Cc1ccc2c(N)c(C(=O)NCCc3ccc(N4CC5(CNC5)C4)cc3)sc2n1 tested on Ubiquitin carboxyl-terminal hydrolase 25 (Homo sapiens, UniProt Q9UHP3).
2 to 10 µM

Turning now to a further molecule:
For the record Cc1cc(-c2cc(CCNC(=O)c3sc4nc(C)ccc4c3N)ccc2N2CCNCC2)ccn1 , what value of IC50 is listed for Ubiquitin carboxyl-terminal hydrolase 25 (Homo sapiens, UniProt Q9UHP3)?
10 to 25 µM

Source: ChEMBL document CHEMBL4476884
